Value source: a melting point compilation (Tetko et al.; mined from patent text by program, amines drawn as free bases though some values may be those of a salt)

value kind: melting point

[[record]]
molecule = "c1ccc(C(c2ccccc2)N2CCC2)cc1"
value_measured = "107 to 109 °C"

[[record]]
molecule = "CCC1CC(=O)N(CCc2ccc(NC(=O)c3ccno3)cc2)N=C1c1ccc(OC)c(OC)c1 (stereo not drawn)"
value_measured = "196 °C"

[[record]]
molecule = "CN(C)Cc1cccc(-c2cc3c(=O)n(NS(C)(=O)=O)c(=O)[nH]c3cc2C(F)(F)F)c1"
value_measured = "346 to 348 °C"

[[record]]
molecule = "CCCN(CCC)Cc1nc(-c2ncn3c2[C@@H]2CCN2C(=O)c2ccccc2-3)no1"
value_measured = "208 to 210 °C"

[[record]]
molecule = "O=C1CC(c2ccc(OCc3ccccc3)cc2)=Nc2ccc(N3CCCC3)cc21"
value_measured = "330 to 332 °C"

[[record]]
molecule = "CCCc1c(C(=O)C(C)C)c2ccc(CC(N)=O)cc2n1Cc1cc2c(cc1Cl)OCO2"
value_measured = "136 to 138 °C"

[[record]]
molecule = "O=C(Cl)c1ccc(C(c2ccc(C(=O)Cl)cc2)(C(F)(F)F)C(F)(F)F)cc1"
value_measured = "96 to 97 °C"

[[record]]
molecule = "CCOC(=O)C(=O)Nc1nc(CN2CCN(C(c3ccccc3)c3ccccc3)CC2)c(Cl)s1"
value_measured = "154 to 156 °C"

